Biological target: Thrombopoietin receptor (Homo sapiens) (UniProt P40238)
Sequence (P40238 whole entry): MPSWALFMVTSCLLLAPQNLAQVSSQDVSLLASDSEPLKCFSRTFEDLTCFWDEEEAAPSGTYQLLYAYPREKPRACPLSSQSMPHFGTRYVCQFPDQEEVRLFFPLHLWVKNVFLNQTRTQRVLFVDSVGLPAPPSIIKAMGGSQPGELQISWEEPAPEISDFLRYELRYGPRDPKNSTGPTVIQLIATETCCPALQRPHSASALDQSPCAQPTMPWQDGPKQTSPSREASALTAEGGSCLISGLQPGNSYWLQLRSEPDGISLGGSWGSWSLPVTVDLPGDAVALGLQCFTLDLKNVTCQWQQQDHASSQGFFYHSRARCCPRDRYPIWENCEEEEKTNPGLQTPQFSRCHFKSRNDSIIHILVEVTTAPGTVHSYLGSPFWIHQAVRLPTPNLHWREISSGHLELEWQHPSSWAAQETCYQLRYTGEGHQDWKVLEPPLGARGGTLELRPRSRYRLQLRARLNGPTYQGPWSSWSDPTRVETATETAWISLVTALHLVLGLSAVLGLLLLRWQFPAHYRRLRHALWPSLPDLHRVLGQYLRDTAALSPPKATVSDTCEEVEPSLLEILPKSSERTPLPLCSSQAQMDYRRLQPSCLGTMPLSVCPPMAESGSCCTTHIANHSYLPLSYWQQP
Assay: Agonist activity at TPO receptor at 10 uM
Type: functional

# STRUCTURE_SMILES, Activity (%)
data = [
    ("O=C(Nc1nc(-c2cccc(F)c2)cs1)c1ccc(Nc2ccncn2)cc1", 45),
    ("Nc1nc(-c2c(F)cccc2F)cs1", 0),
    ("O=C(Nc1nc(-c2ccccc2F)cs1)c1ccc(Nc2ccncn2)cc1", 58),
    ("O=C(Nc1nc(-c2c(F)cccc2F)cs1)c1ccc(Nc2ccncn2)cc1", 0),
    ("O=C(Nc1nc(-c2ccccc2C(F)(F)F)cs1)c1ccc(Nc2ccncn2)cc1", 38),
]
